All values here come from the supplement of paper PMC12667976.

B1: library; numbered along this chain (parent)
chain: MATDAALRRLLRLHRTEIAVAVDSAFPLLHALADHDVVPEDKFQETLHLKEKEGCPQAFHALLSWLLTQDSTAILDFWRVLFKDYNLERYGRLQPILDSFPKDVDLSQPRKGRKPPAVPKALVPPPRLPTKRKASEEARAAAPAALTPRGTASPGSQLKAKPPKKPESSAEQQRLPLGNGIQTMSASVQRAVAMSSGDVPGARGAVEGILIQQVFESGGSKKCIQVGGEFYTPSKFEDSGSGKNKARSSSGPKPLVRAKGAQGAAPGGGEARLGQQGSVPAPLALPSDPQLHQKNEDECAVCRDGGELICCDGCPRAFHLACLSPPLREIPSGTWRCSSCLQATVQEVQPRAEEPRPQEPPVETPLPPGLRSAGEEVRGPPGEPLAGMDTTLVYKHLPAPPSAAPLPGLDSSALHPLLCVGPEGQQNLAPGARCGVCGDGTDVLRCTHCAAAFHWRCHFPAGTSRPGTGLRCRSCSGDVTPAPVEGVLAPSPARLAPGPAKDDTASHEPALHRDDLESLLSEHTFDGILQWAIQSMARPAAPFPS

- Variants of: B1
- PROCEDURE TEXT: AIRE transcriptional activation functional score (insulin promoter-GFP; nonsense median 0, synonymous median 1) (normalised score); higher = higher AIRE activity (more reporter activation)
- RUN CONDITIONS: with insulin promoter-GFP reporter in HEK293
Tick TRUE if AIRE transcriptional activation functional score is 0.8 or greater. Tick FALSE if AIRE transcriptional activation functional score is less than 0.8.

Observe how each entry below is paired with its result.
{"VARIANT KEY": "G467S", "LABEL CLASS": "TRUE"}
{"VARIANT KEY": "P357D", "LABEL CLASS": "TRUE"}
{"VARIANT KEY": "R132W", "LABEL CLASS": "FALSE"}
{"VARIANT KEY": "S474D", "LABEL CLASS": "TRUE"}

Task item: Check the entry F82K : does AIRE transcriptional activation functional score equal or exceed 0.8?
Reply: FALSE

Task item: Check the entry S248Y : does AIRE transcriptional activation functional score equal or exceed 0.8?
Reply: TRUE

Task item: Check the entry V420C : does AIRE transcriptional activation functional score equal or exceed 0.8?
Reply: TRUE
